Data credit: paper PMC10537356

Entries and their half-life
- procedure details: Pharmacokinetic study of 15 LJF components in plasma of RSV-infected mice after oral LJF extract (UHPLC-QQQ MS)
- Assay type: in vivo
- cond: mouse, plasma, po, 12 g/kg, RSV mice plasma, oral LJF extract 12.0 g/kg, n = 6; read-out: T1/2 (converted)
Please reply with the bare figure in h and do not write the unit itself.

Take a look at these entries with their results.
molecule: O=C(C=Cc1ccc(O)c(O)c1)OC1C(O)CC(O)(C(=O)O)CC1O (stereo not drawn)
half-life [h]: 13.5
--
molecule: C[C@@H]1[C@H]2[C@H](O[C@@H]3O[C@H](CO)[C@@H](O)[C@H](O)[C@H]3O)OC=C(C(=O)O)[C@H]2C[C@@H]1O
half-life [h]: 2.33

Now examine the next entry.
Sample C=C[C@H]1[C@H](O[C@@H]2O[C@H](CO)[C@@H](O)[C@H](O)[C@H]2O)OC=C2C(=O)OC(O)C[C@H]21 (stereo partly drawn) ; half-life observed: 10.9

----------
- procedure details: Pharmacokinetic study of 15 LJF components in plasma of RSV-infected mice after oral LJF extract (UHPLC-QQQ MS)
- Assay type: in vivo
- cond: mouse, in vivo, po, 12 g/kg, AUC(0–∞)
measured endpoint: AUC(0-inf) (ng·h/mL)
Please reply with the bare figure in ng·h/mL and do not write the unit itself.

Sample C=C[C@H]1[C@H](O[C@@H]2O[C@H](CO)[C@@H](O)[C@H](O)[C@H]2O)OC=C2C(=O)OCC[C@H]21 [Sweroside] ; AUC(0-inf) observed: 17200

----------
- procedure details: Pharmacokinetic study of 15 LJF components in plasma of RSV-infected mice after oral LJF extract (UHPLC-QQQ MS)
- Type: in vivo
- cond: mouse, in vivo, po, 12 g/kg, T1/2
measured endpoint: half-life
Numeric answer plus unit only.

Sample C=C[C@H]1[C@H](O[C@@H]2O[C@H](CO)[C@@H](O)[C@H](O)[C@H]2O)OC=C2C(=O)OCC[C@H]21 [Sweroside] ; half-life observed: 10.1 h

----------
- procedure details: Pharmacokinetic study of 15 LJF components in plasma of RSV-infected mice after oral LJF extract (UHPLC-QQQ MS)
- Format: in vivo
- cond: mouse, plasma, po, 12 g/kg, RSV mice plasma, oral LJF extract 12.0 g/kg, n = 6; read-out: Cmax
measured endpoint: Cmax (ng/mL)
Please reply with the bare figure in ng/mL and do not write the unit itself.

Take a look at these entries with their results.
compound: O=C(C=Cc1ccc(O)c(O)c1)OC1C(O)CC(O)(C(=O)O)CC1O (stereo not drawn)
Cmax [ng/mL]: 1410

compound: C[C@@H]1[C@H]2[C@H](O[C@@H]3O[C@H](CO)[C@@H](O)[C@H](O)[C@H]3O)OC=C(C(=O)O)[C@H]2C[C@@H]1O
Cmax [ng/mL]: 87.6

Now examine the next entry.
Sample O=c1cc(-c2ccc(O)c(O)c2)oc2cc(O)cc(O)c12 ; Cmax observed: 19.6

----------
- procedure details: Pharmacokinetic study of 15 LJF components in plasma of RSV-infected mice after oral LJF extract (UHPLC-QQQ MS)
- Type: in vivo
- cond: RSV mice plasma, oral LJF extract 12.0 g/kg, n = 6
measured endpoint: AUC(0–∞)

Sample O=C(C=Cc1ccc(O)c(O)c1)OC1CC(O)(C(=O)O)CC(O)C1OC(=O)C=Cc1ccc(O)c(O)c1 (stereo not shown) ; AUC(0–∞) observed: 1740 ng·h/mL
